Source listed as the supplement of paper PMC10567573.

B1: C22orf15 (parent)
chain: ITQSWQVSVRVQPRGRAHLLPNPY

Variants of: B1
ASSAY: protein stability index of a GFP-peptide fusion (GPS, HEK-293T) (PSI 1-6); higher = more stable;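 also: lentivirally expressed fusions sorted by FACS into six bins by GFP to DsRed ratio, PSI derived from sequencing read proportions per bin multiplied by bin number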
CONDITION LABEL: c terminus: a fixed tail appended
REPORTED PROPERTY: protein stability index
Quick one: just the number, no unit, thanks!

GET /values?readout=protein stability index&item= S4T 1.48

Entry under review: W5E . Reported protein stability index? 2.97

Would you kindly share the measured protein stability index for H18K ? 1.74

Looking for the measured protein stability index of R16L , can you help? 1.69

So what does the record say about protein stability index for Q12P ? 1.72

What value of protein stability index has been reported for the following variant? S8A 1.27

Consider the variant shown here: P13L What is its recorded protein stability index? 2.69

protein stability index for Y24C ? 1.71

# lookup: protein stability index of L19K 2.33

Bench note: what protein stability index did Q3D show? 1.47

Which protein stability index reading was recorded for the variant L19N ? 1.49

Consider the variant T2M and give its measured protein stability index. 3.15

// lookup protein stability index for R16E 1.24

Could you share which protein stability index value was measured for R10E ? 1.32

Look up protein stability index for this variant: R16V 1.24

Give its protein stability index value. Item: G15F 1.97

Please look up its protein stability index: R16F 3.25
